Recorded IC50 for the following compounds
biological target: HER2 YVMA (Homo sapiens, UniProt P04626, INS775YVMA); assay: BaF3 cell proliferation assay (CellTiterGlo), HER2 YVMA; conditions: Table A; BaF3 cells, 3 days
Sequence (P04626 with tags, fused parts or gaps INS775YVMA): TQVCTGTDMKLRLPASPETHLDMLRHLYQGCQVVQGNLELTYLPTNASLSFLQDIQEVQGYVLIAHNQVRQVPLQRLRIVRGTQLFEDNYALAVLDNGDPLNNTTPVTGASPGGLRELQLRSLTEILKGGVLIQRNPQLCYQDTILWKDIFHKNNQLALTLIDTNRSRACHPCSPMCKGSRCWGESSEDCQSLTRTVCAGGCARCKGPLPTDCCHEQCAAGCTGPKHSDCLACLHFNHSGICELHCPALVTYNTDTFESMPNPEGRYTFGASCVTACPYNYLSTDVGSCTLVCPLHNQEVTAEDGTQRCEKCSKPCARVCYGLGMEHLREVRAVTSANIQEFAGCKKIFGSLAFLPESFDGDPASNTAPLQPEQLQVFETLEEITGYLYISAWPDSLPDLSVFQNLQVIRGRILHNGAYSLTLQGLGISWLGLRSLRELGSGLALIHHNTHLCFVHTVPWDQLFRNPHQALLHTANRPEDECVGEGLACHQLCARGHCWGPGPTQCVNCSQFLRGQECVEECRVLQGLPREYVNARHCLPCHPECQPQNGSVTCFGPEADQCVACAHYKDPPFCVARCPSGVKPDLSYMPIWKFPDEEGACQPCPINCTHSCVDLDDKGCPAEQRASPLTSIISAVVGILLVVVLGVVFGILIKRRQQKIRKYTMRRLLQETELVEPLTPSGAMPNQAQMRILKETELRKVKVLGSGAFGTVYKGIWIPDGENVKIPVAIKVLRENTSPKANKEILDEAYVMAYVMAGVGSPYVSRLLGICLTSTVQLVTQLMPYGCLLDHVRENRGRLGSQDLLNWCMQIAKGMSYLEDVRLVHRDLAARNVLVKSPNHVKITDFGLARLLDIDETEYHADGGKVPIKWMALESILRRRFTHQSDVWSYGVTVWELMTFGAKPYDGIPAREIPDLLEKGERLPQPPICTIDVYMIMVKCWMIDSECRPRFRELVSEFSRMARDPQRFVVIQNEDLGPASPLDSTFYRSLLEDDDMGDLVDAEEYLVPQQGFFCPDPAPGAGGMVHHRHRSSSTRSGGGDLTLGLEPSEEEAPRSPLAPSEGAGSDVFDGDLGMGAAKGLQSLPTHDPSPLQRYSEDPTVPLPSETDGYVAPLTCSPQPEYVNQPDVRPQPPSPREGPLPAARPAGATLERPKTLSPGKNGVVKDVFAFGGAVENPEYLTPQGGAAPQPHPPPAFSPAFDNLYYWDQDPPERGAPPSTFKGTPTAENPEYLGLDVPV

Answered cases to consult:
compound	IC50
C=CC(=O)Nc1cc2c(Nc3cccc(Cl)c3F)ncnc2cc1C#CC1(C)CN(C)C2(COC2)C1 (centres unmarked) [Compound 47]	> 500 nM
C=CC(=O)Nc1cc2c(Nc3cccc(Cl)c3F)ncnc2cc1C#CC1(C)CCN(C)CC1 [Compound 4]	100 to 500 nM
C=CC(=O)Nc1cc2c(Nc3ccc(Cl)c(Cl)c3F)ncnc2cc1C#C[C@]12C[C@H]1CN(C)C2 [Compound 33]	≤ 50 nM
C=CC(=O)Nc1cc2c(Nc3ccc(OCc4ccccn4)c(Cl)c3)ncnc2cc1C#C[C@@]1(C)CCN(C)C1 [Compound 14]	50 to 100 nM
C=CC(=O)Nc1cc2c(Nc3ccc(Oc4ccn5ncnc5c4)c(C)c3)ncnc2cc1C#CC12CC1CN(C)C2 (centres unmarked) [Compound 28]	≤ 50 nM

Q. API: value(readout=IC50, system=HER2 YVMA (Homo sapiens, UniProt P04626, INS775YVMA)) for record C=CC(=O)Nc1cc2c(Nc3cccc(Cl)c3F)ncnc2cc1C#CC1(C(F)(F)F)CCN(C)C1 (centres unmarked) [Compound 62]
A. > 500 nM

Q. API: value(readout=IC50, system=HER2 YVMA (Homo sapiens, UniProt P04626, INS775YVMA)) for record C=CC(=O)Nc1cc2c(Nc3cccc(Cl)c3F)ncnc2cc1C#C[C@@]12C[C@@H]1CN(C)C2 [Compound 51]
A. 100 to 500 nM

Q. API: value(readout=IC50, system=HER2 YVMA (Homo sapiens, UniProt P04626, INS775YVMA)) for record C=CC(=O)Nc1cc2c(Nc3ccc(O)c(Cl)c3)ncnc2cc1C#C[C@@H]1[C@H]2CN(C)C[C@@H]12 [Compound 73]
A. 100 to 500 nM

Q. API: value(readout=IC50, system=HER2 YVMA (Homo sapiens, UniProt P04626, INS775YVMA)) for record C=CC(=O)Nc1cc2c(Nc3cccc(Cl)c3F)ncnc2cc1C#CC1(C)CCCN(C)C1 (centres unmarked) [Compound 66]
A. > 500 nM

Q. API: value(readout=IC50, system=HER2 YVMA (Homo sapiens, UniProt P04626, INS775YVMA)) for record C=CC(=O)Nc1cc2c(Nc3cccc(Cl)c3F)ncnc2cc1C#C[C@]12C[C@H]1CN(C(C)C)C2 [Compound 42]
A. ≤ 50 nM

Q. API: value(readout=IC50, system=HER2 YVMA (Homo sapiens, UniProt P04626, INS775YVMA)) for record C=CC(=O)Nc1cc2c(Nc3cccc(Cl)c3F)ncnc2cc1C#CC1(F)CCN(C)C1 (centres unmarked) [Compound 60]
A. 100 to 500 nM

Q. API: value(readout=IC50, system=HER2 YVMA (Homo sapiens, UniProt P04626, INS775YVMA)) for record C=CC(=O)Nc1cc2c(Nc3ccc(OCc4ccccn4)c(Cl)c3)ncnc2cc1C#CC1(C)CCCN(C)C1 (centres unmarked) [Compound 67]
A. 100 to 500 nM

Q. API: value(readout=IC50, system=HER2 YVMA (Homo sapiens, UniProt P04626, INS775YVMA)) for record C=CC(=O)Nc1cc2c(Nc3cccc(Cl)c3F)ncnc2cc1C#CC1(C)CN(C)CC1(F)F (centres unmarked) [Compound 55]
A. > 500 nM

Q. API: value(readout=IC50, system=HER2 YVMA (Homo sapiens, UniProt P04626, INS775YVMA)) for record C=CC(=O)Nc1cc2c(Nc3ccc(Cl)c(Cl)c3F)ncnc2cc1C#CC1(C)CCOC1 (centres unmarked) [Compound 63]
A. > 500 nM

// provenance: patent US12435046B2
